Values compiled from the Immune Epitope Database (IEDB).

system under test: HLA-B*53:01
test summary: IEDB peptide-MHC binding, purified MHC/competitive/radioactivity; filed as Kd, often an IC50 or EC50 that approximates it; bounds were set here for any values at or beyond the usual limits of such assays
run parameters: source organism: Vaccinia virus WR
Quick reference: Kd of the listed items.
// return numeric value only (unit: µM, not printed)

LPRVVGGKTV	12.4

Alright, here's another sequence for you.
Query: # input sequence: `KVFSFWLLCK` ; wanted: its Kd
Response: 2.34

---

system under test: HLA-A*69:01
test summary: IEDB peptide-MHC binding, purified MHC/direct/fluorescence; filed as Kd, often an IC50 or EC50 that approximates it; bounds were set here for any values at or beyond the usual limits of such assays
run parameters: source organism: Giardia lamblia ATCC 50803
measured property: Kd

Query: Find the recorded Kd belonging to `IHKPRPPAT` and report it.
Response: ≥ 20 µM
